- experimental_target: HCV NS5B polymerase (His-tagged, C-terminal 21 amino acid deleted NS5B, HC-J4) (Hepatitis C virus genotype 1b, UniProt O92972)
- Construct: The cDNA encoding NS5B amino acid 1-570 (HC-J4, genotype 1b); His tag (His6, from pET-21b) (C); made in house; host or cells: E. coli BL21 (DE3)
- Sequence (O92972 2417-3000, looked up, stated change not applied): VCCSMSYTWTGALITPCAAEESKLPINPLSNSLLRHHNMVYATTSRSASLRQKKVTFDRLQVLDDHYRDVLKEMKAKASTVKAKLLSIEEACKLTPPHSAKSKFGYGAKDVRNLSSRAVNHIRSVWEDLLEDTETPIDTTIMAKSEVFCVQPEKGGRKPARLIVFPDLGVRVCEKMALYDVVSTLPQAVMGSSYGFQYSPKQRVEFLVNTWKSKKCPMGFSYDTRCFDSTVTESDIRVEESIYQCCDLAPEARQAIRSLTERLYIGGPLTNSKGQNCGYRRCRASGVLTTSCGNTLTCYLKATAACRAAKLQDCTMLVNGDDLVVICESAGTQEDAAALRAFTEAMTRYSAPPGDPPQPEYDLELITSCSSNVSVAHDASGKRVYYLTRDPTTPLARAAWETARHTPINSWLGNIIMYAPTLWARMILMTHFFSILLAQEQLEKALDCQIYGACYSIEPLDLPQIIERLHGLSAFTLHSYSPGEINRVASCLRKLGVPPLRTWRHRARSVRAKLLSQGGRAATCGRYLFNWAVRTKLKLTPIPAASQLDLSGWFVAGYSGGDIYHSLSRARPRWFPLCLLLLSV
- protocol_description: NS5b polymerase assay (biochemical RdRp assay, 3H-GTP incorporation, SPA beads)
- Set-up: species or system HCV genotype 1b
- condition: NS5B Polymerase Assay IC50 (μM)
measured_property: IC50

**Q:** Query IC50 for CC1(C)CC(=O)C2=C(C1)Nc1ccccc1NC2c1cccc(Cl)c1Cl (stereo not drawn)
**A:** > 42.7 µM

**Q:** Query IC50 for CC1(C)CC(=O)C2=C(C1)Nc1ccccc1N(CC(=O)O)C2c1ccc(Cl)cc1Cl (stereo not drawn)
**A:** 1.9 µM

**Q:** Query IC50 for CN1c2ccccc2NC2=C(C(=O)CC(C)(C)C2)C1c1ccc(Cl)cc1Cl (stereo not drawn)
**A:** > 42.7 µM

**Q:** Query IC50 for Cc1cccc2c1NC(c1ccc(Cl)cc1Cl)C1=C(CC(C)(C)CC1=O)N2 (stereo not drawn)
**A:** 32.3 µM

**Q:** Query IC50 for COc1ccc(OC)c(C2Nc3ccccc3NC3=C2C(=O)CC(c2ccc(Cl)cc2)C3)c1 (stereo not drawn)
**A:** > 42.7 µM

**Q:** Query IC50 for COc1ccc(C2CC(=O)C3=C(C2)Nc2ccccc2NC3c2cc(OC)ccc2OC)cc1 (stereo not drawn)
**A:** > 42.7 µM

----------
Please go through the items and note down their melting point.

**Q:** Query melting point for CC(=O)N1c2c(cccc2C(=O)NCCc2ccncc2)NC2=C(C(=O)CC(C)(C)C2)C1c1ccc(Cl)cc1Cl (centres unmarked)
**A:** > 260 °C

**Q:** Query melting point for CC(=O)N1c2c(cccc2C(=O)O)NC2=C(C(=O)CC(C)(C)C2)C1c1ccc(Cl)cc1Cl (centres unmarked)
**A:** > 260 °C

**Q:** Query melting point for CC(=O)N1c2ccc(C(=O)NCCN3CCOCC3)cc2NC2=C(C(=O)CC(C)(C)C2)C1c1ccc(Cl)cc1Cl (centres unmarked) [compound 321]
**A:** > 260 °C

**Q:** Query melting point for CC1(C)CC(=O)C2=C(C1)Nc1ccccc1N(C(=O)Cc1ccccc1)C2c1ccc(Cl)cc1Cl (centres unmarked) [compound 154]
**A:** > 260 °C

**Q:** Query melting point for Cc1cccc2c1NC1=C(C(=O)CC(C)(C)C1)C(c1ccc(Cl)cc1Cl)N2 (centres unmarked) [compound 471]
**A:** 225 °C

**Q:** Query melting point for CC(=O)N1c2ccccc2NC2=C(C(=O)CC(C)(C)C2)C1c1ccc(OCc2ccccc2)c(Cl)c1 (single isomer, unassigned) [compound 304]
**A:** 130 °C

**Q:** Query melting point for CC(=O)N1c2ccc(CN)cc2NC2=C(C(=O)CC(C)(C)C2)C1c1ccc(Cl)cc1Cl (centres unmarked)
**A:** > 260 °C

**Q:** Query melting point for CC1(C)CC(=O)C2=C(C1)Nc1cc(C(=O)O)ccc1NC2c1ccc(Cl)cc1Cl (centres unmarked)
**A:** > 250 °C

----------
- experimental_target: HCV NS5B polymerase (His-tagged, C-terminal 21 amino acid deleted NS5B, HC-J4) (Hepatitis C virus genotype 1b, UniProt O92972)
- Construct: The cDNA encoding NS5B amino acid 1-570 (HC-J4, genotype 1b); His tag (His6, from pET-21b) (C); made in house; host or cells: E. coli BL21 (DE3)
- protocol_description: NS5b polymerase assay (biochemical RdRp assay, 3H-GTP incorporation, SPA beads)
- Set-up: species or system HCV genotype 1b
- condition: NS5B Polymerase Assay IC50 (μM)
measured_property: IC50

**Q:** Query IC50 for COc1ccc(C2CC(=O)C3=C(C2)Nc2ccccc2NC3c2ccccc2OC(C)C)cc1 (stereo not drawn)
**A:** > 42.7 µM

**Q:** Query IC50 for Cc1cc2c(cc1C)NC(c1c(F)cccc1F)C1=C(CC(C)(C)CC1=O)N2 (stereo not drawn)
**A:** > 42.7 µM

**Q:** Query IC50 for O=C1CCCC2=C1C(c1ccc(Cl)cc1Cl)Nc1ccccc1N2 (stereo not drawn)
**A:** > 133 µM
